Biological target: recombinant human MASP2 active protease (amino acids 297-686, C-terminal His Tag) (human, UniProt O00187 297-686)
Sequence (O00187 other isoform, or with tags, fused parts or gaps limits assumed): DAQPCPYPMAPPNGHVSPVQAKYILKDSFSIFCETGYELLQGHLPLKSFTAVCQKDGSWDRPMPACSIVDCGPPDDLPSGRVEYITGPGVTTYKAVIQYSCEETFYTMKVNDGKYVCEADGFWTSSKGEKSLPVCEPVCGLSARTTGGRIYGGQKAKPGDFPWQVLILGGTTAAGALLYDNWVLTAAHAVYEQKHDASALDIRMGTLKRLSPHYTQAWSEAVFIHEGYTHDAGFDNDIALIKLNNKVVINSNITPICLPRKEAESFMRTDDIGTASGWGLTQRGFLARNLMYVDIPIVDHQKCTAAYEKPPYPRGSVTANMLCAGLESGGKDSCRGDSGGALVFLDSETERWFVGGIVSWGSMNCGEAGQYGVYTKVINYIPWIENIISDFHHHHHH
Experiment: cell-based or functional assay
Bridge positions count the residues as written; N and C are the ends. Square brackets hold non-standard residues; d marks the D form. Ends that are not written are not given here. PEG9 = NCCOCCOCCOCCOCCOCCOCCOCCOCCOCCC(=O)O; Pro(4-spirocPr) = O=C(O)[C@@H]1CC2(CC2)CN1; Oic = O=C(O)[C@@H]1C[C@@H]2CCCC[C@@H]2N1; tBuAla = CC(C)(C)C[C@H](N)C(=O)O; Pen = CC(C)(S)[C@H](N)C(=O)O; NMeC = CN[C@@H](CS)C(=O)O; Nle = CCCC[C@H](N)C(=O)O; Orn = NCCC[C@H](N)C(=O)O; PEG2 = NCCOCCOCCC(=O)O; Sar = CNCC(=O)O
quantity: human MASP2 IC50
State the value with its unit after it.

AICSRSLP[Oic]I[Pen]IP-OH (disulfide 3-11; N-terminus assumed; SMILES CC[C@H](C)[C@H](NC(=O)[C@H](C)N)C(=O)N[C@H]1CSSC(C)(C)[C@@H](C(=O)N[C@H](C(=O)N2CCC[C@H]2C(=O)O)[C@@H](C)CC)NC(=O)[C@H]([C@@H](C)CC)NC(=O)[C@@H]2C[C@@H]3CCCC[C@@H]3N2C(=O)[C@@H]2CCCN2C(=O)[C@H](CC(C)C)NC(=O)[C@H](CO)NC(=O)[C@H](CCCNC(=N)N)NC(=O)[C@H](CO)NC1=O) [AIC+SRSLP-(Oic)-I-(Pen)+IP-OH] : 160 nM
[Sar]ICSRSLP[Oic]I[Pen]IP[PEG2]-NH2 (disulfide 3-11; N-terminus assumed; SMILES CC[C@H](C)[C@H](NC(=O)CNC)C(=O)N[C@H]1CSSC(C)(C)[C@@H](C(=O)N[C@H](C(=O)N2CCC[C@H]2C(=O)NCCOCCOCCC(N)=O)[C@@H](C)CC)NC(=O)[C@H]([C@@H](C)CC)NC(=O)[C@@H]2C[C@@H]3CCCC[C@@H]3N2C(=O)[C@@H]2CCCN2C(=O)[C@H](CC(C)C)NC(=O)[C@H](CO)NC(=O)[C@H](CCCNC(=N)N)NC(=O)[C@H](CO)NC1=O) [((N-Me)G)-IC+SRSLP-(Oic)-I-(Pen)+IP-(PEG1(10 atoms))-NH2] : 87 nM
[Orn]ICSRS[tBuAla]PPI[NMeC]IPD-NH2 (disulfide 3-11; N-terminus assumed; SMILES CC[C@H](C)[C@H](NC(=O)[C@@H](N)CCCN)C(=O)N[C@H]1CSSC[C@@H](C(=O)N[C@H](C(=O)N2CCC[C@H]2C(=O)N[C@@H](CC(=O)O)C(N)=O)[C@@H](C)CC)N(C)C(=O)[C@H]([C@@H](C)CC)NC(=O)[C@@H]2CCCN2C(=O)[C@@H]2CCCN2C(=O)[C@H](CC(C)(C)C)NC(=O)[C@H](CO)NC(=O)[C@H](CCCNC(=N)N)NC(=O)[C@H](CO)NC1=O) [(Orn)-IC+SRS-((tBu)A)-PPI-((N-Me)C)+IPD-NH2] : 150 nM
AICSRS[tBuAla]P[Pro(4-spirocPr)]I[Pen]IPD-NH2 (disulfide 3-11; N-terminus assumed; SMILES CC[C@H](C)[C@H](NC(=O)[C@H](C)N)C(=O)N[C@H]1CSSC(C)(C)[C@@H](C(=O)N[C@H](C(=O)N2CCC[C@H]2C(=O)N[C@@H](CC(=O)O)C(N)=O)[C@@H](C)CC)NC(=O)[C@H]([C@@H](C)CC)NC(=O)[C@@H]2CC3(CC3)CN2C(=O)[C@@H]2CCCN2C(=O)[C@H](CC(C)(C)C)NC(=O)[C@H](CO)NC(=O)[C@H](CCCNC(=N)N)NC(=O)[C@H](CO)NC1=O) [AIC+SRS-((tBu)A)-P-((6S)-5-Azaspiro[2.4]heptane-6-carboxylic acid)-I-(Pen)+IPD-NH2] : 24.5 nM
[Sar]ICSRS[tBuAla]PPI[Pen]IP-{PEG9-NH2} (disulfide 3-11) [((N-Me)G)-IC+SRS-((tBu)A)-PPI-(Pen)+IP-(PEG9(31 atoms))-NH2] : 73 nM
WICSRS[tBuAla]PPI[Pen]IPD-NH2 (disulfide 3-11; N-terminus assumed; SMILES CC[C@H](C)[C@H](NC(=O)[C@@H](N)Cc1c[nH]c2ccccc12)C(=O)N[C@H]1CSSC(C)(C)[C@@H](C(=O)N[C@H](C(=O)N2CCC[C@H]2C(=O)N[C@@H](CC(=O)O)C(N)=O)[C@@H](C)CC)NC(=O)[C@H]([C@@H](C)CC)NC(=O)[C@@H]2CCCN2C(=O)[C@@H]2CCCN2C(=O)[C@H](CC(C)(C)C)NC(=O)[C@H](CO)NC(=O)[C@H](CCCNC(=N)N)NC(=O)[C@H](CO)NC1=O) [WIC+SRS-((tBu)A)-PPI-(Pen)+IPD-NH2] : 64 nM

Short answer for [Nle]ICSRS[tBuAla]PPI[Pen]IPD-NH2 (disulfide 3-11; N-terminus assumed; SMILES CCCC[C@H](N)C(=O)N[C@H](C(=O)N[C@H]1CSSC(C)(C)[C@@H](C(=O)N[C@H](C(=O)N2CCC[C@H]2C(=O)N[C@@H](CC(=O)O)C(N)=O)[C@@H](C)CC)NC(=O)[C@H]([C@@H](C)CC)NC(=O)[C@@H]2CCCN2C(=O)[C@@H]2CCCN2C(=O)[C@H](CC(C)(C)C)NC(=O)[C@H](CO)NC(=O)[C@H](CCCNC(=N)N)NC(=O)[C@H](CO)NC1=O)[C@@H](C)CC) [(Nle)-IC+SRS-((tBu)A)-PPI-(Pen)+IPD-NH2] : human MASP2 IC50 was 38 nM

Short answer for AICSRSLP[Oic]I[Pen]IPQ-NH2 (disulfide 3-11; N-terminus assumed; SMILES CC[C@H](C)[C@H](NC(=O)[C@H](C)N)C(=O)N[C@H]1CSSC(C)(C)[C@@H](C(=O)N[C@H](C(=O)N2CCC[C@H]2C(=O)N[C@@H](CCC(N)=O)C(N)=O)[C@@H](C)CC)NC(=O)[C@H]([C@@H](C)CC)NC(=O)[C@@H]2C[C@@H]3CCCC[C@@H]3N2C(=O)[C@@H]2CCCN2C(=O)[C@H](CC(C)C)NC(=O)[C@H](CO)NC(=O)[C@H](CCCNC(=N)N)NC(=O)[C@H](CO)NC1=O) [AIC+SRSLP-(Oic)-I-(Pen)+IPQ-NH2] : human MASP2 IC50 was 140 nM

Values compiled from patent US20210246166A1.
